# Tested on: PIM-1 or PIM-2
# Construct: fused on or other part: C-terminal histidine tag (PIM-1 enzyme); N-terminal histidine tag (PIM-2 enzyme)
# assayName: PIM-1 / PIM-2 biochemical assay (ADP Hunter assay kit)
# Parameters: species or system human
# testConditions: tested in either the PIM-1 or the PIM-2 biochemical assay (as appropriate); ATP 100 μM
pIC50: −log10 of the molar value.
parameter: pIC50

| compoundStructure | parameter | experimentalValue |
| --- | --- | --- |
| O=S(=O)(Nc1cnc2ccc(-c3ccccc3)nn12)c1ccccc1 | pIC50 | 4.84 |
| O=C(Nc1ccc(O)cc1)c1cnc2ccc(NCc3ccc(F)cc3)nn12 | pIC50 | 7.15 |
| O=C(Nc1ccccc1)c1cnc2ccc(-n3ccnc3)nn12 | pIC50 | 5.33 |

1. COc1ccc(CNc2ccc3ncc(C(=O)Nc4cccc(C(=O)O)c4)n3n2)cc1
2. COc1ccc(C(=O)Nc2cnc3ccc(NCc4ccc(F)cc4)nn23)cc1
Of 1 and 2 , whose reported pIC50 is the larger number? Returns: label corresponding to the selected item.
2

* * *

# Test system: PIM-1 or PIM-2
# Construct: fused on or other part: C-terminal histidine tag (PIM-1 enzyme); N-terminal histidine tag (PIM-2 enzyme)
# assayName: PIM-1 / PIM-2 biochemical assay (ADP Hunter assay kit)
# Parameters: species or system human
# testConditions: tested in either the PIM-1 or the PIM-2 biochemical assay (as appropriate); ATP 100 μM
parameter: IC50 (µM)

P. O=C(Nc1ccccc1)c1cnc2ccc(Oc3ccccc3)nn12
Q. CCS(=O)(=O)Nc1cnc2ccc(-c3ccccc3)nn12
Smaller IC50 value, P vs Q ? Returns: label corresponding to the selected item.
P
(P: 0.12 µM, Q: 17.4 µM)

* * *

# Test system: PIM-1 or PIM-2
# Construct: fused on or other part: C-terminal histidine tag (PIM-1 enzyme); N-terminal histidine tag (PIM-2 enzyme)
# assayName: PIM-1 / PIM-2 biochemical assay (ADP Hunter assay kit)
# Parameters: species or system human
# testConditions: tested in either the PIM-1 or the PIM-2 biochemical assay (as appropriate); ATP 100 μM
# Excerpt: The biochemical assay to measure PIM-1 activity relies on the ADP Hunter assay kit (DiscoveRx Corp., Cat. # 90-0077), that determines the amount of ADP as direct product of the kinase enzyme activity. The enzyme has been expressed and purified in-house as a recombinant human protein with a C-terminal histidine tag. The protein is active and stable. […]
parameter: IC50 (µM)

Here's what some known entries look like.
| compoundStructure | targetEntity | experimentalValue |
| --- | --- | --- |
| COc1ccc(NC(=O)c2cnc3ccc(NCc4ccc(F)cc4)nn23)cc1 | PIM-1 or PIM-2 | 0.08 |
| CC(=O)c1cccc(NC(=O)c2cnc3ccc(NCc4ccc(Cl)c(Cl)c4)nn23)c1 | PIM-1 or PIM-2 | 33 |
| Clc1ccc(CNc2ccc3ncc(CN4CCOCC4)n3n2)cc1Cl | PIM-1 or PIM-2 | 33 |
| O=C(Nc1cnc2ccc(NCc3ccc(F)cc3)nn12)c1ccccc1 | PIM-1 or PIM-2 | 1.15 |
| O=C(Nc1cnc2ccc(-c3ccccc3)nn12)c1ccccc1 | PIM-1 or PIM-2 | 5.23 |

a. COc1ccc(NC(=O)c2cnc3ccc(NCc4ccco4)nn23)cc1OC
b. O=C(Nc1cnc2ccc(NCc3ccc(F)cc3)nn12)c1cccc(O)c1
c. O=C(Nc1ccc2[nH]ccc2c1)c1cnc2ccc(NCc3ccc(Cl)c(Cl)c3)nn12
d. CCC(=O)Nc1cnc2ccc(NCc3ccc(F)cc3)nn12
Please produce an ascending ranking of these compounds based on IC50. Rank them, then answer with their labels in that order.
c, b, a, d

* * *

# System: PIM-1 or PIM-2
# Construct: fused on or other part: C-terminal histidine tag (PIM-1 enzyme); N-terminal histidine tag (PIM-2 enzyme)
# assayName: PIM-1 / PIM-2 biochemical assay (ADP Hunter assay kit)
# Set-up: species or system human
# testConditions: tested in either the PIM-1 or the PIM-2 biochemical assay (as appropriate); ATP 100 μM
pIC50: −log10 of the molar value.
parameter: pIC50

P. Cc1ccc(CNc2nn3c(C(=O)Nc4ccccc4)cnc3cc2C)cc1F
Q. O=C(Nc1ccccc1)c1cnc2ccc(OCc3ccccc3)nn12
Smaller pIC50 value, P vs Q ? Returns: label corresponding to the selected item.
Q
(Q: 4.96, P: 7.22)

P. O=C(Nc1ccccc1)c1cnc2ccc(Nc3cccnc3)nn12
Q. O=C(Nc1ccccc1)c1cnc2ccc(-n3cccc3)nn12
R. Cc1cc(NCc2ccc(Cl)c(Cl)c2)nn2c(C#Cc3ccccc3)cnc12
Parameters: sort_field (pIC50), sort_dir (desc). Rank them, then answer with their labels in that order.
P, Q, R
(P: 7.22, Q: 6.28, R: 5.28)

1. CN(Cc1ccc(Cl)c(Cl)c1)c1ccc2ncc(C(=O)Nc3ccccc3)n2n1
2. CNC(=O)c1cccc(NC(=O)c2cnc3c(C)cc(NCc4ccc(OC)cc4)nn23)c1
Of 1 and 2 , whose reported pIC50 is the larger number? Returns: label corresponding to the selected item.
1
(1: 7.22, 2: 5.50)

I. COCCNC(=O)c1cnc2ccc(NCc3ccc(Cl)c(Cl)c3)nn12
II. O=C(Nc1ccccc1)c1cnc2ccc(Oc3ccc(F)cc3)nn12
III. O=C(Nc1ccccc1)c1cnc2ccc(N3Cc4ccccc4C3)nn12
IV. O=C(Nc1ccccc1)c1cnc2ccc(Nc3ccccc3)nn12
V. O=C(Nc1cnc2ccc(-n3ccnc3)nn12)c1ccc(O)cc1
Parameters: sort_field (pIC50), sort_dir (desc). Rank them, then answer with their labels in that order.
IV, III, II, I, V
(IV: 7.40, III: 6.74, II: 5.65, I: 5.33, V: 4.84)

1. Cc1nc2ccc(NCc3ccc(F)cc3)nn2c1C(=O)Nc1ccccc1
2. CCOC(=O)c1cccc(NC(=O)c2cnc3c(C)cc(NCc4ccc(OC)cc4)nn23)c1
Smaller pIC50 value, 1 vs 2 ? Returns: label corresponding to the selected item.
1
(1: 5.34, 2: 6.80)

a. COc1ccc(C(=O)Nc2cnc3ccc(-n4ccnc4)nn23)cc1
b. O=C(Nc1cccnc1)c1cnc2ccc(NCc3ccc(Cl)c(Cl)c3)nn12
Smaller pIC50 value, a vs b ? Returns: label corresponding to the selected item.
a

a. Cc1cc2ncc(C(=O)Nc3ccccc3)n2nc1NCc1cccc(F)c1
b. Cc1cc2ncc(C(=O)Nc3ccccc3)n2nc1NCc1ccco1
c. COc1ccc(CNc2nn3c(C(=O)Nc4ccccc4)cnc3cc2C2CCCC2)cc1
d. Cc1cc2ncc(C#Cc3ccccc3)n2nc1NCc1ccc(Cl)c(Cl)c1
Please produce an ascending ranking of these molecules based on pIC50. Rank them, then answer with their labels in that order.
d, b, c, a

P. O=C(Nc1ccccc1)c1cnc2cc(C3CCCC3)c(NCc3ccc(F)cc3)nn12
Q. CCNC(=O)c1cnc2ccc(NCc3ccc(Cl)c(Cl)c3)nn12
Of P and Q , whose reported pIC50 is the larger number? Returns: label corresponding to the selected item.
P
(P: 7.10, Q: 5.66)

* * *

# Test system: PIM-1 or PIM-2
# Construct: fused on or other part: C-terminal histidine tag (PIM-1 enzyme); N-terminal histidine tag (PIM-2 enzyme)
# assayName: PIM-1 / PIM-2 biochemical assay (ADP Hunter assay kit)
# Parameters: species or system human
# testConditions: tested in either the PIM-1 or the PIM-2 biochemical assay (as appropriate); ATP 100 μM
# Description: The biochemical assay to measure PIM-1 activity relies on the ADP Hunter assay kit (DiscoveRx Corp., Cat. # 90-0077), that determines the amount of ADP as direct product of the kinase enzyme activity. The enzyme has been expressed and purified in-house as a recombinant human protein with a C-terminal histidine tag. The protein is active and stable. […]
parameter: IC50 (nM)

Here's what some known entries look like.
| compoundStructure | unitOfMeasurement | IC50 |
| --- | --- | --- |
| COc1ccc(NC(=O)c2cnc3ccc(NCc4ccc(S(N)(=O)=O)cc4)nn23)cn1 | nM | 1140 |
| Cc1cc(NCc2ccc(Cl)c(Cl)c2)nn2c(C(=O)Nc3ccccc3)cnc12 | nM | 70 |

1. COc1ccc(CNc2cc(C)c3ncc(C(=O)Nc4cccc(C(=O)O)c4)n3n2)cc1
2. O=C(O)c1ccc(NC(=O)c2cnc3ccc(NCc4ccc(Cl)c(Cl)c4)nn23)cc1
3. O=C(Nc1cnc2ccc(Oc3ccccc3)nn12)c1ccccc1
4. Clc1ccc(CNc2ccc3ncc(C#CCc4ccccc4)n3n2)cc1Cl
5. COc1ccc(-c2ccc3ncc(C(=O)Nc4ccccc4)n3n2)cc1
Please produce an ascending ranking of these compounds based on IC50. Rank them, then answer with their labels in that order.
2, 5, 4, 3, 1
(2: 260 nM, 5: 380 nM, 4: 2850 nM, 3: 4650 nM, 1: 19300 nM)
